- Assay method text: inhibitors of hydroxyurea-induced Chk1 phosphorylation, primary screen, imaging, HeLa, phospho-Chk1 nuclear intensity (AID 1187); note: test concentration not given here
- Conditions used: hydroxyurea-induced phospho-Chk1 immunofluorescence imaging, higher = more signal
Lab note: anything with z-score at or over 0.2 counts as 1.0; the rest go in 0.0.

Look over these answered cases.
[
  {
    "Smiles entry": "CCCCC(=C=CC[C@H](O)c1ccc(OCCO)cc1)C[C@H](O)c1ccccn1",
    "Class name": 1.0
  },
  {
    "Smiles entry": "CCc1cccc(NC(=O)O[C@H]2[C@H](OC(=O)Nc3ccc4c(c3)OCO4)[C@H](OC(=O)Nc3ccc4c(c3)OCO4)[C@@H](OC)O[C@@H]2CO)c1",
    "Class name": 0.0
  },
  {
    "Smiles entry": "COc1ccc([Si](C)(C)[C@H]2[C@H](CC(=O)N3Cc4ccccc4C[C@H]3CO)O[C@@]3(C(=O)N(Cc4cccc(N5C(=O)c6cccc7cccc5c67)c4)c4ccccc43)[C@@H]2C)cc1",
    "Class name": 0.0
  },
  {
    "Smiles entry": "CCCC[C@@H](O)C1=C(COC)Cn2c(=O)n(-c3ccccc3)c(=O)n2[C@H]1CO",
    "Class name": 0.0
  },
  {
    "Smiles entry": "CN(C)CCCNC(=O)[C@@H]1c2ccccc2C(=O)N(C2Cc3ccccc3C2)[C@H]1c1ccc(CO)cc1",
    "Class name": 0.0
  },
  {
    "Smiles entry": "COCCOC(=O)N1C(=O)[C@@]2(c3cc(C#CC4(O)CCCCCC4)ccc31)[C@H](C(=O)N1CCc3cc(OC)c(OC)cc3C1)[C@H]1C(=O)O[C@H](c3ccccc3)[C@H](c3ccccc3)N1[C@@H]2c1ccc(O)cc1",
    "Class name": 1.0
  }
]

Ask: Could you tell me if the measured z-score of CCCCCCc1nc(-c2ccc(OC)nc2)cc2c1[Si](C(C)C)(C(C)C)OC2 reaches 0.2 or more?
Result: 1.0

* * *

For each record, write down the corresponding composite z-score.
- Measured on: Fibroblast growth factor 10 (Homo sapiens) (UniProt O15520)
- Sequence (O15520 whole entry, looked up): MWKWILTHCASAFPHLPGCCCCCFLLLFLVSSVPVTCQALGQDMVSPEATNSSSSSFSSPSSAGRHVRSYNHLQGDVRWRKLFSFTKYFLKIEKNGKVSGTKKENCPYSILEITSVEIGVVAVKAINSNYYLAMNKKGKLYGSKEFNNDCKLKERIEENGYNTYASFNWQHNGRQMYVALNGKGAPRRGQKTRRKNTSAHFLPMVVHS
- Assay method text: FGF10 binders on small-molecule microarrays, primary screen, biochemical, small-molecule microarray, 635 nm fluorescence (AID 1102)
- Conditions used: FGF10 binding, fluorescence 635 nm, higher = more signal

Look over these answered cases.
[
  {
    "Molecule": "COc1ccc(C(O)C2C=CC3C(=O)N(C)C(=O)C3N2Nc2ccc([N+](=O)[O-])cc2[N+](=O)[O-])cc1OCc1ccccc1 (stereo not drawn)",
    "Meas value": 0.895
  },
  {
    "Molecule": "COCCOC(=O)N1C(=O)[C@@]2(c3cc(C#CC4(O)CCCCCC4)ccc31)[C@H](c1ccc(OCCO)cc1)N1[C@H](c3ccccc3)[C@H](c3ccccc3)OC(=O)[C@H]1[C@@H]2C(N)=O",
    "Meas value": 1.14
  },
  {
    "Molecule": "O=C1c2ccccc2[C@@]2(Cc3ccccc3N(Cc3ccccc3)C2=O)[C@H](c2ccc(CO)cc2)N1Cc1ccccc1",
    "Meas value": -0.74
  },
  {
    "Molecule": "CCCC[C@@H]1C[C@H]1[C@@H](NC(=O)Cc1ccccc1)c1ccc(Cl)cc1",
    "Meas value": 0.592
  },
  {
    "Molecule": "CC(C)CNC(=O)[C@@H]1c2ccccc2C(=O)N(Cc2ccccc2Cl)[C@H]1c1ccc(CO)cc1",
    "Meas value": -0.765
  }
]

For each of the molecules below, state composite z-score.
1. C=C(CCCC)C(=O)CC[C@H](OC(C)=O)c1ccccc1OCCO
2. Cc1c(NC(=O)/C(C#N)=C/c2ccc(Cl)cc2)c(=O)n(-c2ccccc2)n1C
3. C=C(CCCC)C(=O)CC[C@H](OC(=O)c1cccnc1)c1ccc(CO)o1

Result:
1. 0.633
2. 0.938
3. 1.13

* * *

- Assay method text: splicing luciferase reporter signal modulators, primary screen, spliceosome inhibition project, cell-based, HEK293, splice +/- reporter (AID 1101);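 note: HEK293 cells carrying a splicing-competent luciferase reporter gene; test concentration not given here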
- Conditions used: luminescence, 24 h, higher = more signal, called active from +8 up or from −8 down
Readout name: z-score
Numbers only.

Look over these answered cases.
[
  {
    "Compound": "COCCOC(=O)N1C(=O)[C@@]2(c3cc(C#Cc4ccc(OC)cc4)ccc31)[C@H](C(=O)N1CCCCCCC1)[C@H]1C(=O)O[C@H](c3ccccc3)[C@H](c3ccccc3)N1[C@@H]2c1ccccc1OCCO",
    "z-score": 0.00537
  },
  {
    "Compound": "CCCC=C(CCC)[C@@H](NS(=O)(=O)c1ccc(Cl)cc1)c1ccccc1",
    "z-score": -1.69
  },
  {
    "Compound": "Cc1ccc(F)cc1S(=O)(=O)N[C@@H]1CCN(Cc2ccc3[nH]ccc3c2)C1",
    "z-score": 0.309
  },
  {
    "Compound": "CCOC(=O)C1=C(C(=O)OCC)N(S(=O)(=O)CC[Si](C)(C)C)[C@H](c2ccccc2)CC1",
    "z-score": 0.37
  },
  {
    "Compound": "CCOC(=O)C1=CC[C@@H](c2ccc(F)cc2)N(S(=O)(=O)c2ccc(C)cc2)[C@H]1c1ccc([N+](=O)[O-])cc1",
    "z-score": -0.689
  }
]

For each of the compounds below, state z-score.
1. O=C1N(Cc2ccccc2)c2ccccc2[C@H]2OC(c3ccc(OCCCO)cc3)=N[C@@]12Cc1ccccc1
2. C[C@@H](OCc1ccccc1)C1NC(=O)[C@@]23C(=O)N[C@@H](Cc4ccccc4)C2[C@H](C)[C@@]2(C)O[C@H]2C3/C=C/C/C=C\CNC(=O)[C@H](Cc2ccccc2)NC1=O (some centres undefined)
3. CC(C)C[C@H]1NC(=O)[C@H](Cc2ccccc2)NC(=O)[C@@]23C(=O)N[C@@H](Cc4ccccc4)C2[C@H](C)[C@@]2(C)O[C@H]2C3/C=C/C/C=C\CNC1=O (some centres undefined)
4. COC(=O)[C@@]1(Cc2ccc(F)cc2)[C@H]2c3cc(C(=O)N(C)C)n(CCO)c3C[C@H]2CN1C(=O)c1ccccc1
5. C=C(/C(=C/C[C@@H](OC(C)=O)c1ccccc1OCCO)c1cc(C(=O)OC)ccc1OC)C(C)C
6. CCCC[C@@H](O)C1=C(COC)Cn2c(=O)n(-c3ccccc3)c(=O)n2[C@H]1CO

Result:
-0.385
-0.708
-0.514
-0.773
0.314
-0.446

* * *

- Assay method text: binders of probe aFGF2 on microarray, primary screen, stem cell growth factor project, biochemical, small-molecule microarray, fluorescence 635/667 (AID 1067);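 note: measures binding of biotinylated aFGF2 protein to printed compounds on slides; z-score merges feature fluorescence and signal-to-noise across triplicate slides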
- Conditions used: higher = more signal
For each record, write down the corresponding composite z-score.
Numbers only.

[
  {
    "Compound": "CC=CC(O)C1C=CC2C(=O)N(C)C(=O)C2N1NC(=O)OC(C)(C)C (centres undefined)",
    "Meas value": -0.072
  }
]

For each of the compounds below, state composite z-score.
1. CCCCC(O)C1C=CC2C(=O)N(C)C(=O)C2N1Nc1ccccc1 (centres undefined)
2. C=CCC(OC(C)=O)[C@@H]1[C@@H](N(Cc2ccc(-c3cccc(C(F)(F)F)c3)o2)C(=O)c2cccc3ccccc23)c2cc(OCCCO)ccc2N1C(=O)c1ccc2ccccc2c1 (some centres undefined)
3. COc1ccccc1CN1C(=O)c2ccccc2[C@@H](C(=O)NCCCN(C)C)[C@@H]1c1ccc(CO)cc1

Result:
-0.0778
-0.0909
-0.161

* * *

- Measured on: Torsin-1A (Homo sapiens) (UniProt O14656)
- Sequence (O14656 whole entry, looked up): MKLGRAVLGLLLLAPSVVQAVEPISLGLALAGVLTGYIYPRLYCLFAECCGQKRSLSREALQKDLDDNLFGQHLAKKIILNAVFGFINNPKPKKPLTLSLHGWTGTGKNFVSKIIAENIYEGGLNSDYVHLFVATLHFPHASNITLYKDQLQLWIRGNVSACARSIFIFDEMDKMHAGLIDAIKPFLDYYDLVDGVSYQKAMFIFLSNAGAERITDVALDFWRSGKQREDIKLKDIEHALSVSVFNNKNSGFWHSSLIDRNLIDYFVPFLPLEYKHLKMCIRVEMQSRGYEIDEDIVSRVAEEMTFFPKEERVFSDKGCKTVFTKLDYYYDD
- Assay method text: torsin A binders from cell lysate, primary screen, small-molecule microarray, wild-type, 635/667 nm (AID 1149)
- Conditions used: COS7 hTOR1A-WT lysate, 635 nm fluorescence, higher = more signal
For each record, write down the corresponding composite z-score.

Look over these answered cases.
[
  {
    "Compound": "C=CCC(OC(C)=O)[C@@H]1[C@@H](N(Cc2ccc(-c3cccc(C(F)(F)F)c3)o2)C(=O)Cc2ccc(F)cc2)c2cc(OCCCO)ccc2N1C(=O)c1ccc2ccccc2c1 (stereo not given in full)",
    "Measured on": "Torsin-1A (Homo sapiens) (UniProt O14656)",
    "Meas value": -0.954
  },
  {
    "Compound": "CCCCC=C[C@@H](NC(=O)c1ccc(C(F)(F)F)cc1)c1ccccc1",
    "Measured on": "Torsin-1A (Homo sapiens) (UniProt O14656)",
    "Meas value": -0.652
  },
  {
    "Compound": "CC(C)C(=C=CC[C@@H](O)c1ccccc1OCCO)C[C@@H](O)c1cc(Cl)cc(Cl)c1O",
    "Measured on": "Torsin-1A (Homo sapiens) (UniProt O14656)",
    "Meas value": 1.44
  },
  {
    "Compound": "C=CC[C@@]12N=C(c3ccc(OCCCO)cc3)O[C@@H]1c1ccccc1N(Cc1ccccc1)C2=O",
    "Measured on": "Torsin-1A (Homo sapiens) (UniProt O14656)",
    "Meas value": 1.19
  },
  {
    "Compound": "CN(C)CCCC[C@@H]1NC(=O)[C@@H]2C[C@H](C(=O)NCCCCCCNC(=O)CS)[C@H](c3cccc(OCCO)c3)N2C1=O",
    "Measured on": "Torsin-1A (Homo sapiens) (UniProt O14656)",
    "Meas value": 0.77
  },
  {
    "Compound": "COc1ccccc1CN1C(=O)c2ccccc2[C@@H](C(=O)NCCCN(C)C)[C@@H]1c1ccc(CO)cc1",
    "Measured on": "Torsin-1A (Homo sapiens) (UniProt O14656)",
    "Meas value": -0.236
  },
  {
    "Compound": "COC(=O)[C@@]1(Cc2ccc(F)cc2)[C@H]2c3cc(C(=O)N(C)C)n(CCO)c3C[C@H]2CN1C(=O)c1ccccc1",
    "Measured on": "Torsin-1A (Homo sapiens) (UniProt O14656)",
    "Meas value": 0.149
  },
  {
    "Compound": "CN(C)CCCNC(=O)[C@@H]1c2ccccc2C(=O)N(C2Cc3ccccc3C2)[C@H]1c1ccc(CO)cc1",
    "Measured on": "Torsin-1A (Homo sapiens) (UniProt O14656)",
    "Meas value": 0.798
  },
  {
    "Compound": "COCCOC(=O)N1C(=O)[C@@]2(c3cc(C#CCC(C(=O)OC)C(=O)OC)ccc31)[C@H](C(=O)N1CCc3cc(OC)c(OC)cc3C1)[C@H]1C(=O)O[C@H](c3ccccc3)[C@H](c3ccccc3)N1[C@@H]2c1ccc(O)cc1",
    "Measured on": "Torsin-1A (Homo sapiens) (UniProt O14656)",
    "Meas value": 1.32
  },
  {
    "Compound": "[N-]=[N+]=Nc1ccccc1[C@@H]1OC(c2ccc(OCCCO)cc2)=N[C@]1(Cc1ccccc1)C(N)=O",
    "Measured on": "Torsin-1A (Homo sapiens) (UniProt O14656)",
    "Meas value": 0.245
  }
]

For each of the compounds below, state composite z-score.
1. CN1C(=O)[C@]2(CCC(=O)OC(C)(C)C)N=C(c3ccc(OCCCO)cc3)O[C@@H]2c2ccccc21
2. CN1C(=O)C2C=CC(C(O)c3ccc(-c4ccccc4)s3)N(Nc3ccccc3)C2C1=O (stereo not given)
3. C=CCC(OC(C)=O)[C@@H]1[C@@H](N(Cc2cc3ccccc3o2)C(=O)Cc2ccc(OC)cc2)c2cc(OCCCO)ccc2N1C(=O)Cc1ccc(OC)cc1 (stereo not given in full)

Result:
1. 0.112
2. 0.0922
3. 0.29

For each of the compounds below, state composite z-score.
1. CCCCC(=C=CC[C@@H](O)c1cccc(OCCO)c1)CCO
2. [N-]=[N+]=NCc1ccccc1[C@H]1OC(c2ccc(OCCCO)cc2)=N[C@@]1(Cc1ccccc1)C(=O)N1CCOCC1

Result:
-1.33
1.47
